Provide the recorded Tango IC50 for the entries that follow.
- system: human CCR8 (human, UniProt P51685 1-355)
- Sequence (P51685 whole entry): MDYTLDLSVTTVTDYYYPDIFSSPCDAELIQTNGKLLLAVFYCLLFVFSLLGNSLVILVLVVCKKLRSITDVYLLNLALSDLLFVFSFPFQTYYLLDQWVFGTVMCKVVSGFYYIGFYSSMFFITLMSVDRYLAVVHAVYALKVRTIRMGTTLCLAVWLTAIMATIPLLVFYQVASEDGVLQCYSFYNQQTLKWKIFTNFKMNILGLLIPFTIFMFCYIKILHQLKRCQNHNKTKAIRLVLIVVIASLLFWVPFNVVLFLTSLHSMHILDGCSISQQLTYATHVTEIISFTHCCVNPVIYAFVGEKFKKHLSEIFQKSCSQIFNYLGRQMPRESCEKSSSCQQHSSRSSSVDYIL
- test_summary: cell-based or functional assay
Give bare numbers, in nM.

Sample answers from the record:
2L15 (antibody, V domains shown, Mouse hybridoma monoclonal antibody) VH: EVQLVESGGGLVQPKGSLKLSCAASGFSFNTYAMNWVRQAPGKGLEWVARIRSKSNNYATYYADSVKDRFTISRADSESMLYLQMNNLKTEDTAMYYCVRGKDISVSYAMDYWGQGTSVTVSS VL: DIVMTQAAPSVPVTPGESVSISCRSSKSLQHSNGNTYLYWFLQRPGQSPQLLIYRMSNLASGVPDRFSGSGSGTAFTLRISRVETEDVGVYYCMQHLEYPFTFGSGTKLEIK = 1.23
118H1 (antibody, V domains shown, Mouse hybridoma monoclonal antibody; also called 1181H1) VH: EVQLVESGGGLVQPKGSLKLSCAASGFSFNPYAMNWVRQAPGKGLEWIARIRSKSNNYAAYYADSVKDRFTISRDDSENILYLQMKNLITEDTAMYYCVRDYYGTRPSIGMDYWGRGTSVTVSS VL: DIAMTQAAPSVFVTPGESVSISCRSSQSLLHSNGNTYLYWFLQRPGRSPQLLIYRMSNLASGVPDRFSGSGSGTGFTLRISRVEAEDVGVYYCMQHLEYPFTFGAGTKLELK = 1.43

# context switch: different binder, same Tango IC50
Look up and state reported Tango IC50 for 4D24 (antibody, V domains shown, Mouse hybridoma monoclonal antibody) VH: EVQLVESGGGLVQPKGSLKLSCAASGFSFNPYAMNWVRQSPGKGLEWVARIRSKSNNYATYYADSVKDRFTISRDDSESMLYLQMNNLKTEDTAMYYCVRQGWVKRYFDVWGTGTTVTVSS VL: GNVLTQSPAIMSASPGEKVTMTCSASSSGTYMHWYQQKSTTSPKLWIYDTSKLASGVPGRFSGSGSGNSYSLTISSMEAEDIATYYCFQGSGYPLTFGSGTKLEIK
0.67
